Assay target: T1, SYNJ2BP, P57105
T1 sequence (P57105 8-110, limits assumed, looked up): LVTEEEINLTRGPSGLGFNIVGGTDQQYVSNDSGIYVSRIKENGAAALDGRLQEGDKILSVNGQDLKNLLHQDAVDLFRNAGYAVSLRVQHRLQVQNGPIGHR
Run description: holdup assay
Set-up: key: below the threshold = too weak to quantify, mostly under pKd 3.1 to 4
Condition set: plain residues with an end cap or a label only (N-terminal biotin on a linker: ttds)
Entry flag: label 1 if pKd reaches 5; label 0 if it does not.

| Binder | Answer label |
| --- | --- |
| EVVHTPETSV [SLC16A3, O15427] | label 0 |
| EMDRRPATVV [PLCB4, Q15147] | label 0 |
| KKYVDAETSL [SLC4A7, Q9Y6M7] | label 0 |

Asked: Check this binder for pKd at or above 5: FHPLGADSQV [SLC2A1, P11166]
Given back: label 0

Asked: Check this binder for pKd at or above 5: RPLPRKVSQL [DOCK4, Q8N1I0]
Given back: label 0

Asked: Check this binder for pKd at or above 5: RLPKIKETTV [FRMPD4, Q14CM0]
Given back: label 1

Asked: Check this binder for pKd at or above 5: RHTTSTETAV [HPV30-E6, P36809]
Given back: label 1

Asked: Check this binder for pKd at or above 5: QRQARSETLV [HPV59-E6, Q81964]
Given back: label 0
